Target: human IL-23R (Homo sapiens, UniProt Q5VWK5)
Assay: biochemical
Where a SMILES comes first, the peptide text is derived from it. Bridges are numbered along the chain shown (N, C = ends). [ ]: non-standard residue; d: D form. 2Nal = N[C@@H](Cc1ccc2ccccc2c1)C(=O)O; AEF = NCCOc1ccc(C[C@H](N)C(=O)O)cc1; 3Pal = N[C@@H](Cc1cccnc1)C(=O)O; αMeL = CC(C)C[C@](C)(N)C(=O)O; Dab = NCC[C@H](N)C(=O)O
endpoint: log10 of IC50 (log10 of the value in nM)
Field: value | Transform: log10 | Quantity: IC50 | Unit: nM

# input Entry CNC(=O)[C@H](Cc1cccnc1)NC(=O)[C@H](CCN)NC(=O)[C@@H]1CCC(=O)NCCCC[C@@H]2NC(=O)CC[C@H](NC(=O)[C@H](CCC(N)=O)NC(=O)[C@H](Cc3c[nH]c4ccccc34)NC(=O)CCNC2=O)C(=O)N[C@@H](Cc2ccc(OCCN)cc2)C(=O)N[C@@H](Cc2ccc3ccccc3c2)C(=O)N[C@@](C)(CC(C)C)C(=O)N1 : reported log10 of IC50 = ?
# output -1.66

# input Then this compound: CNC(=O)[C@H](Cc1cccnc1)NC(=O)[C@H](CCN)NC(=O)[C@@H]1CCCCNC(=O)CC[C@@H]2NC(=O)CC[C@H](NC(=O)[C@H](CCC(N)=O)NC(=O)[C@H](Cc3c[nH]c4ccccc34)NC(=O)[C@H]([C@@H](C)O)NC2=O)C(=O)N[C@@H](Cc2ccc(OCCN)cc2)C(=O)N[C@@H](Cc2ccc3ccccc3c2)C(=O)N[C@@](C)(CC(C)C)C(=O)N1 [Compound 39] (ETWQE[AEF][2Nal][αMeL]K[Dab][3Pal]-NHMe; lactam 1-9, N-5)
# output -0.19

# input Then this compound: CC[C@H](C)[C@@H]1NC(=O)[C@@H]2CCCCNC(=O)CC[C@@H](C(=O)N[C@@H](CCN)C(=O)N[C@@H](Cc3cncnc3)C(=O)NC)NC(=O)[C@](C)(CC(C)C)NC(=O)[C@H](Cc3ccc4ccccc4c3)NC(=O)[C@H](Cc3ccc(OCCN)cc3)NC(=O)[C@H](CCC(=O)N2)NC(=O)[C@H](CCC(N)=O)NC(=O)[C@H](Cc2c[nH]c3ccccc23)NC(=O)[C@H](C(C)C)NC1=O
# output 0.48

# input Then this compound: CC[C@H](C)[C@@H]1NC(=O)[C@@H]2CCCCNC(=O)CC[C@@H](C(=O)N[C@@H](CCN)C(=O)N[C@@H](Cc3cccnc3)C(N)=O)NC(=O)[C@](C)(C(C)C)NC(=O)[C@H](Cc3ccc4ccccc4c3)NC(=O)[C@H](Cc3ccc(C)cc3)NC(=O)[C@H](CCC(=O)N2)NC(=O)[C@H](CCC(N)=O)NC(=O)[C@H](Cc2c[nH]c3ccccc23)NC(=O)[C@H](C(C)C)NC1=O
# output -1.00

# input Then this compound: CC(C)C[C@@H]1NC(=O)[C@H](Cc2c[nH]c3ccccc23)NC(=O)[C@H](Cc2c[nH]c3ccccc23)NC(=O)[C@@H]2CSCC(=O)CSC[C@H](NC(=O)[C@H]([C@@H](C)O)NC(=O)[C@@H](NC(=O)CN)CSCC(=O)CSC[C@@H](C(=O)N[C@@H](CO)C(N)=O)NC1=O)C(=O)N[C@@H](Cc1c[nH]c3ccccc13)C(=O)N[C@@H](CCC(=O)O)C(=O)N2 (single isomer, unassigned) [I1 (isomer 3), H-GC(1a)TC(2a)WEC(2a)WWLC(1a)S-[NH2], reference compound]
# output 2.11
